Assay: Chiral acid salt screen: approximate solubility of starting material in solvents
Type: physicochemical
Conditions: Acetone:water (9:1); ambient temperature, 3 days
Method: INT 1f salts (50-60 mg) were weighed into 4 ml vials. Solvent (~0.2-1.0 mL) was added to each vial, and the vials were stirred at ambient temperature for 3 days. Additional solvent was added to vials with thick slurries, and additional salts were added to vials with clear solutions. In this example, the resolution of INT 1g and Compound 1 via chiral salts is summarized.
metric name: Approximate Solubility of Starting Material

| compound | val |
| --- | --- |
| COc1ccc(C)c(-n2c(N)c(C#N)c3cc(C)c(C)nc32)c1C.O=P1(O)Oc2c(-c3c(C4CCCCC4)cc(C4CCCCC4)cc3C3CCCCC3)cc3ccccc3c2-c2c(c(-c3c(C4CCCCC4)cc(C4CCCCC4)cc3C3CCCCC3)cc3ccccc23)O1 [INT 1f/(S)-TCYP] | Soluble |
| Cc1cc2c(C(N)=O)c(N)n(-c3c(C)ccc(O)c3C)c2nc1C [Compound 1/Acid h] | Soluble |

---

Experiment: Chiral acid salt screen: approximate solubility of starting material in solvents
Format: physicochemical
Conditions: EtOH; ambient temperature, 3 days
metric name: Approximate Solubility of Starting Material

| compound | val |
| --- | --- |
| COc1ccc(C)c(-n2c(N)c(C#N)c3cc(C)c(C)nc32)c1C.O=P1(O)Oc2c(-c3c(C4CCCCC4)cc(C4CCCCC4)cc3C3CCCCC3)cc3ccccc3c2-c2c(c(-c3c(C4CCCCC4)cc(C4CCCCC4)cc3C3CCCCC3)cc3ccccc23)O1 [INT 1f/(S)-TCYP] | Very soluble |
| COc1ccc(C)c(-n2c(N)c(C#N)c3cc(C)c(C)nc32)c1C.Cc1ccc(C(=O)O[C@H](C(=O)O)[C@H](OC(=O)c2ccc(C)cc2)C(=O)O)cc1 | Soluble |
| Cc1cc2c(C(N)=O)c(N)n(-c3c(C)ccc(O)c3C)c2nc1C [Compound 1/Acid h] | Soluble |
| CC1(C)C2CC[C@@]1(CS(=O)(=O)O)C(=O)C2.COc1ccc(C)c(-n2c(N)c(C#N)c3cc(C)c(C)nc32)c1C [INT 1f/(S)-CSA] | Very soluble |
| CC(C)c1cc(C(C)C)c(-c2cc3ccccc3c3c2OP(=O)(O)Oc2c(-c4c(C(C)C)cc(C(C)C)cc4C(C)C)cc4ccccc4c2-3)c(C(C)C)c1.COc1ccc(C)c(-n2c(N)c(C#N)c3cc(C)c(C)nc32)c1C [INT 1f/(S)-TRIP] | Soluble |
| CC1(C)C2CCC1(CS(=O)(=O)O)C(=O)C2Br.COc1ccc(C)c(-n2c(N)c(C#N)c3cc(C)c(C)nc32)c1C.O | Very soluble |
| COc1ccc(C)c(-n2c(N)c(C#N)c3cc(C)c(C)nc32)c1C.O=P1(O)Oc2ccc3ccccc3c2-c2c(ccc3ccccc23)O1 | Very soluble |
| COc1ccc(C)c(-n2c(N)c(C#N)c3cc(C)c(C)nc32)c1C.O=C(O[C@H](C(=O)O)[C@H](OC(=O)c1ccccc1)C(=O)O)c1ccccc1 [INT 1f/(+)-2,3-Dibenzoyl-D-tartaric Acid] | Soluble |

---

Assay: Chiral acid salt screen: approximate solubility of starting material in solvents
Assay type: physicochemical
Conditions: DCM; ambient temperature, 3 days
metric name: Approximate Solubility of Starting Material

| molecule | val |
| --- | --- |
| COc1ccc(C)c(-n2c(N)c(C#N)c3cc(C)c(C)nc32)c1C.O=C(O[C@H](C(=O)O)[C@H](OC(=O)c1ccccc1)C(=O)O)c1ccccc1 [INT 1f/(+)-2,3-Dibenzoyl-D-tartaric Acid] | Highly soluble |
| CC1(C)C2CC[C@@]1(CS(=O)(=O)O)C(=O)C2.COc1ccc(C)c(-n2c(N)c(C#N)c3cc(C)c(C)nc32)c1C [INT 1f/(S)-CSA] | Very soluble |
| COc1ccc(C)c(-n2c(N)c(C#N)c3cc(C)c(C)nc32)c1C.O=P1(O)Oc2ccc3ccccc3c2-c2c(ccc3ccccc23)O1 | Highly soluble |
| CC1(C)C2CCC1(CS(=O)(=O)O)C(=O)C2Br.COc1ccc(C)c(-n2c(N)c(C#N)c3cc(C)c(C)nc32)c1C.O | Highly soluble |
| COc1ccc(C)c(-n2c(N)c(C#N)c3cc(C)c(C)nc32)c1C.Cc1ccc(C(=O)O[C@H](C(=O)O)[C@H](OC(=O)c2ccc(C)cc2)C(=O)O)cc1 | Very soluble |
| Cc1cc2c(C(N)=O)c(N)n(-c3c(C)ccc(O)c3C)c2nc1C [Compound 1/Acid h] | Partially soluble |
| COc1ccc(C)c(-n2c(N)c(C#N)c3cc(C)c(C)nc32)c1C.O=P1(O)Oc2c(-c3c(C4CCCCC4)cc(C4CCCCC4)cc3C3CCCCC3)cc3ccccc3c2-c2c(c(-c3c(C4CCCCC4)cc(C4CCCCC4)cc3C3CCCCC3)cc3ccccc23)O1 [INT 1f/(S)-TCYP] | Highly soluble |
| Cc1cc2c(C(N)=O)c(N)n(-c3c(C)ccc(O)c3C)c2nc1C [Compound 1/Acid f] | Partially soluble |
| CC(C)c1cc(C(C)C)c(-c2cc3ccccc3c3c2OP(=O)(O)Oc2c(-c4c(C(C)C)cc(C(C)C)cc4C(C)C)cc4ccccc4c2-3)c(C(C)C)c1.COc1ccc(C)c(-n2c(N)c(C#N)c3cc(C)c(C)nc32)c1C [INT 1f/(S)-TRIP] | Highly soluble |
| Cc1cc2c(C(N)=O)c(N)n(-c3c(C)ccc(O)c3C)c2nc1C [Compound 1/Acid d] | Partially soluble |

---

Assay: Chiral acid salt screen: approximate solubility of starting material in solvents
Type: physicochemical
Settings: THF; ambient temperature, 3 days
metric name: Approximate Solubility of Starting Material

| compound | val |
| --- | --- |
| CC(C)c1cc(C(C)C)c(-c2cc3ccccc3c3c2OP(=O)(O)Oc2c(-c4c(C(C)C)cc(C(C)C)cc4C(C)C)cc4ccccc4c2-3)c(C(C)C)c1.COc1ccc(C)c(-n2c(N)c(C#N)c3cc(C)c(C)nc32)c1C [INT 1f/(S)-TRIP] | Highly soluble |
| CC1(C)C2CCC1(CS(=O)(=O)O)C(=O)C2Br.COc1ccc(C)c(-n2c(N)c(C#N)c3cc(C)c(C)nc32)c1C.O | Highly soluble |

---

Experiment: Chiral acid salt screen: approximate solubility of starting material in solvents
Assay type: physicochemical
Conditions: Anisole; ambient temperature, 3 days
metric name: Approximate Solubility of Starting Material

| compound | val |
| --- | --- |
| COc1ccc(C)c(-n2c(N)c(C#N)c3cc(C)c(C)nc32)c1C.O=P1(O)Oc2ccc3ccccc3c2-c2c(ccc3ccccc23)O1 | Very soluble |
| Cc1cc2c(C(N)=O)c(N)n(-c3c(C)ccc(O)c3C)c2nc1C [Compound 1/Acid f] | Soluble |
| CC(C)c1cc(C(C)C)c(-c2cc3ccccc3c3c2OP(=O)(O)Oc2c(-c4c(C(C)C)cc(C(C)C)cc4C(C)C)cc4ccccc4c2-3)c(C(C)C)c1.COc1ccc(C)c(-n2c(N)c(C#N)c3cc(C)c(C)nc32)c1C [INT 1f/(S)-TRIP] | Very soluble |
| COc1ccc(C)c(-n2c(N)c(C#N)c3cc(C)c(C)nc32)c1C.O=P1(O)Oc2c(-c3c(C4CCCCC4)cc(C4CCCCC4)cc3C3CCCCC3)cc3ccccc3c2-c2c(c(-c3c(C4CCCCC4)cc(C4CCCCC4)cc3C3CCCCC3)cc3ccccc23)O1 [INT 1f/(S)-TCYP] | Very soluble |
| COc1ccc(C)c(-n2c(N)c(C#N)c3cc(C)c(C)nc32)c1C.O=C(O[C@H](C(=O)O)[C@H](OC(=O)c1ccccc1)C(=O)O)c1ccccc1 [INT 1f/(+)-2,3-Dibenzoyl-D-tartaric Acid] | Soluble |
| CC1(C)C2CCC1(CS(=O)(=O)O)C(=O)C2Br.COc1ccc(C)c(-n2c(N)c(C#N)c3cc(C)c(C)nc32)c1C.O | Soluble |
| COc1ccc(C)c(-n2c(N)c(C#N)c3cc(C)c(C)nc32)c1C.Cc1ccc(C(=O)O[C@H](C(=O)O)[C@H](OC(=O)c2ccc(C)cc2)C(=O)O)cc1 | Soluble |
| CC1(C)C2CC[C@@]1(CS(=O)(=O)O)C(=O)C2.COc1ccc(C)c(-n2c(N)c(C#N)c3cc(C)c(C)nc32)c1C [INT 1f/(S)-CSA] | Very soluble |

---

Assay: Chiral acid salt screen: approximate solubility of starting material in solvents
Format: physicochemical
Conditions: THF; ambient temperature, 3 days
metric name: Approximate Solubility of Starting Material

| compound | val |
| --- | --- |
| COc1ccc(C)c(-n2c(N)c(C#N)c3cc(C)c(C)nc32)c1C.O=C(O[C@H](C(=O)O)[C@H](OC(=O)c1ccccc1)C(=O)O)c1ccccc1 [INT 1f/(+)-2,3-Dibenzoyl-D-tartaric Acid] | Highly soluble |
| COc1ccc(C)c(-n2c(N)c(C#N)c3cc(C)c(C)nc32)c1C.O=P1(O)Oc2c(-c3c(C4CCCCC4)cc(C4CCCCC4)cc3C3CCCCC3)cc3ccccc3c2-c2c(c(-c3c(C4CCCCC4)cc(C4CCCCC4)cc3C3CCCCC3)cc3ccccc23)O1 [INT 1f/(S)-TCYP] | Highly soluble |
| COc1ccc(C)c(-n2c(N)c(C#N)c3cc(C)c(C)nc32)c1C.O=P1(O)Oc2ccc3ccccc3c2-c2c(ccc3ccccc23)O1 | Highly soluble |

Data origin, for the record: patent US20260308152A1
